TARGET: T1, human FcRn/b2M (human, UniProt P61769 21-119, biotinylated)
T1 construct: bought recombinant biotinylated protein (ACRO FCM-H82W4 or Immunitrack ITF01); also called hFcRn; hFcRn/hb2M
T1 sequence (chain, as listed by the source limits assumed, chain 1 of 2): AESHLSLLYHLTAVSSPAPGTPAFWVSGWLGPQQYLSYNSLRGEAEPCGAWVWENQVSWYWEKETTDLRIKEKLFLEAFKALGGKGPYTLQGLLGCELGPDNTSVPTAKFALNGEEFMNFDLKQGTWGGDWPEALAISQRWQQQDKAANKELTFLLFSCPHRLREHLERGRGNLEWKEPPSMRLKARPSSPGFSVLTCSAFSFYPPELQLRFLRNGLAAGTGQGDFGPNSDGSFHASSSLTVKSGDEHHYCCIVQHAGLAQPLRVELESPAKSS
T1 sequence (P61769 21-119 limits assumed, chain 2 of 2): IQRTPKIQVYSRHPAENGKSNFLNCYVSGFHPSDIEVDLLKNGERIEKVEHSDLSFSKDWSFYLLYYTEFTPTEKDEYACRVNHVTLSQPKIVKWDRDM
PROCEDURE_TEXT: SPR pH 7.4;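 further: surface plasmon resonance kinetics, periplasmic extracts diluted 1:10 flowed over immobilized target at 25 °C, 120 s association then 600–3600 s dissociation, buffer with 150 mM NaCl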

BINDER	OUTPUT_UNIT	koff
T0263018B11 W100cY (VHH, name in Kabat numbering, FLAG3-His6 tagged) VHH: EVQLVESGGGVVQPGGSLRLSCAASGFTFSSYAMYWVRQAPGKGLEWVSAISSGGGSTDYADSVKGRFTISRDNSKNTLYLQMNSLRPEDTALYYCAADTLYTSLTYYSYWGQGTLVTVSS	s⁻¹	0.09
T0263018B11 G55D (VHH, name in Kabat numbering, FLAG3-His6 tagged) VHH: EVQLVESGGGVVQPGGSLRLSCAASGFTFSSYAMYWVRQAPGKGLEWVSAISSGGDSTDYADSVKGRFTISRDNSKNTLYLQMNSLRPEDTALYYCAADTLYTSLTWYSYWGQGTLVTVSS	s⁻¹	0.07
T0263018B11 S52aE (VHH, name in Kabat numbering, FLAG3-His6 tagged) VHH: EVQLVESGGGVVQPGGSLRLSCAASGFTFSSYAMYWVRQAPGKGLEWVSAISEGGGSTDYADSVKGRFTISRDNSKNTLYLQMNSLRPEDTALYYCAADTLYTSLTWYSYWGQGTLVTVSS	s⁻¹	0.036
T0263018B11 S101T (VHH, name in Kabat numbering, FLAG3-His6 tagged) VHH: EVQLVESGGGVVQPGGSLRLSCAASGFTFSSYAMYWVRQAPGKGLEWVSAISSGGGSTDYADSVKGRFTISRDNSKNTLYLQMNSLRPEDTALYYCAADTLYTSLTWYTYWGQGTLVTVSS	s⁻¹	0.025
